- Test system: NCI-H2228
- EXPERIMENT SUMMARY: relative viability (nuclei count vs DMSO), 5 days (fraction); higher = more cells survive
- MEASUREMENT SETUP: first compound 0.1 µM
OUTCOME MEASURE: relative viability

COMPOUND	OUTCOME MEASURE	MEASURED
Cc1cn(-c2cc(NC(=O)c3ccc(C)c(Nc4nccc(-c5cccnc5)n4)c3)cc(C(F)(F)F)c2)cn1 [Nilotinib] + Nc1nc2[nH]cc(CCc3ccc(C(=O)N[C@@H](CCC(=O)O)C(=O)O)cc3)c2c(=O)[nH]1 [Pemetrexed] (partner 0.2 µM)	relative viability	0.165

Query block: # lookup: relative viability of Cc1cn(-c2cc(NC(=O)c3ccc(C)c(Nc4nccc(-c5cccnc5)n4)c3)cc(C(F)(F)F)c2)cn1 [Nilotinib] + Cc1nc(NC(=O)N2CCC[C@H]2C(N)=O)sc1-c1ccnc(C(C)(C)C(F)(F)F)c1 [Alpelisib] (partner 2 µM)
Result block: 0.455

Query block: What value of relative viability has been reported for the following compound? Cc1cn(-c2cc(NC(=O)c3ccc(C)c(Nc4nccc(-c5cccnc5)n4)c3)cc(C(F)(F)F)c2)cn1 [Nilotinib] + COc1cc2c(Oc3ccc(NC(=O)C4(C(=O)Nc5ccc(F)cc5)CC4)cc3F)ccnc2cc1OCCCN1CCOCC1 [Foretinib] (partner 0.25 µM)
Result block: 0.8

Query block: Dear colleague, I am looking for the recorded relative viability of the following compound: Cc1cn(-c2cc(NC(=O)c3ccc(C)c(Nc4nccc(-c5cccnc5)n4)c3)cc(C(F)(F)F)c2)cn1 [Nilotinib] + Cc1cc(Nc2cc(N3CCN(C)CC3)nc(Sc3ccc(NC(=O)C4CC4)cc3)n2)n[nH]1 [Tozasertib] (partner 0.1 µM)
Result block: 0.141

Query block: I am curious: what relative viability value has been reported for Cc1cn(-c2cc(NC(=O)c3ccc(C)c(Nc4nccc(-c5cccnc5)n4)c3)cc(C(F)(F)F)c2)cn1 [Nilotinib] + CS(=O)(=O)N1CCN(Cc2cc3nc(-c4cccc5[nH]ncc45)nc(N4CCOCC4)c3s2)CC1 [Pictilisib] (partner 1 µM) ?
Result block: 0.397

###

- Tested on: NCI-H1395
- EXPERIMENT SUMMARY: relative viability (nuclei count vs DMSO), 5 days (fraction); higher = more cells survive
- MEASUREMENT SETUP: first compound 0.02 µM
OUTCOME MEASURE: relative viability
Write the number on its own, no unit after it.

MOLECULE	MEASURED
CCNC(=O)c1noc(-c2cc(C(C)C)c(O)cc2O)c1-c1ccc(CN2CCOCC2)cc1 [Luminespib] + CC1(C)CCC(c2ccc(Cl)cc2)=C(CN2CCN(c3ccc(C(=O)NS(=O)(=O)c4ccc(N[C@H](CCN5CCOCC5)CSc5ccccc5)c(S(=O)(=O)C(F)(F)F)c4)cc3)CC2)C1 [Navitoclax] (partner 0.5 µM)	0.949

Query block: What value of relative viability has been reported for the following molecule? CCNC(=O)c1noc(-c2cc(C(C)C)c(O)cc2O)c1-c1ccc(CN2CCOCC2)cc1 [Luminespib] + Nc1ncn([C@H]2C[C@H](O)[C@@H](CO)O2)c(=O)n1 [Decitabine] (partner 2 µM)
Result block: 0.634

###

As shown below, each of these molecules has a reported relative viability value.
- Tested on: EMC-BAC-2
- EXPERIMENT SUMMARY: relative viability (nuclei count vs DMSO), 5 days (fraction); higher = more cells survive
- MEASUREMENT SETUP: first compound 0.003162 µM
The response must contain the number and no unit.

Query block: Fill in the blank: the reported relative viability of Cc1cn(-c2cc(NC(=O)c3ccc(C)c(Nc4nccc(-c5cccnc5)n4)c3)cc(C(F)(F)F)c2)cn1 [Nilotinib] + C[C@@H](Oc1cc(-c2cnn(C3CCNCC3)c2)cnc1N)c1c(Cl)ccc(F)c1Cl [Crizotinib] (partner 1 µM) is ____.
Result block: 0.682

Query block: For Cc1cn(-c2cc(NC(=O)c3ccc(C)c(Nc4nccc(-c5cccnc5)n4)c3)cc(C(F)(F)F)c2)cn1 [Nilotinib] + CC(C)C[C@H](NC(=O)[C@H](Cc1ccccc1)NC(=O)c1cnccn1)B(O)O [Bortezomib] (partner 0.002 µM) , what is its reported relative viability?
Result block: 1.08

Query block: Request the reported relative viability associated with Cc1cn(-c2cc(NC(=O)c3ccc(C)c(Nc4nccc(-c5cccnc5)n4)c3)cc(C(F)(F)F)c2)cn1 [Nilotinib] + Cc1nc(NC(=O)N2CCC[C@H]2C(N)=O)sc1-c1ccnc(C(C)(C)C(F)(F)F)c1 [Alpelisib] (partner 2 µM)
Result block: 0.893

Query block: So what's the measured relative viability for this one? Cc1cn(-c2cc(NC(=O)c3ccc(C)c(Nc4nccc(-c5cccnc5)n4)c3)cc(C(F)(F)F)c2)cn1 [Nilotinib] + CC(=O)Nc1cccc(-n2c(=O)n(C3CC3)c(=O)c3c(Nc4ccc(I)cc4F)n(C)c(=O)c(C)c32)c1 [Trametinib] (partner 0.02 µM)
Result block: 0.697

Data provenance is the supplement of paper PMC10307832.
